Molecular target: Human STING (Homo sapiens)
Sequence (Q86WV6 whole entry): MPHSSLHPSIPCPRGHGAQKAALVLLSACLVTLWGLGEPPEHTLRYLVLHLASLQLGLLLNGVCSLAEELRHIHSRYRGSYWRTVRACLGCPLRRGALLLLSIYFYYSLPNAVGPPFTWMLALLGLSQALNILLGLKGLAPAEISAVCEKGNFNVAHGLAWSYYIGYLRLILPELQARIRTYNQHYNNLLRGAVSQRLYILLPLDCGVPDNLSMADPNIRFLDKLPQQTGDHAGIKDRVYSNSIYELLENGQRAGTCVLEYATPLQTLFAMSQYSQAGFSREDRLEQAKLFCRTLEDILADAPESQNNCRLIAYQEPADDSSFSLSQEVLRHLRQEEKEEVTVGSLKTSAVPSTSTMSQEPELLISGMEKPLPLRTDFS
Test: Human STING reporter assay, Tables 6-8 (variant named only in a drawing)
Conditions: read-out: Human STING EC50 (μM)
Parameter EC50: see the listing below.

cpd.smiles: O=P1(O)OC[C@H]2OC3[C@H](F)[C@@H]2O[P@@](O)(=S)OC[C@H]2O[C@H]([C@H](F)[C@@H]2O1)n1cnc2c(ncnc21)NC/C=C/CNc1ncnc2c1ncn23
target.desc: Human STING (Homo sapiens)
EC50 (µM): 27.6
--
cpd.smiles: O=P1(O)OC[C@H]2OC3[C@H](F)[C@@H]2O[P@](O)(=S)OC[C@H]2O[C@H]([C@H](F)[C@@H]2O1)n1cnc2c(ncnc21)NC/C=C/CNc1ncnc2c1ncn23
target.desc: Human STING (Homo sapiens)
EC50 (µM): 18.4
